System: CP201
PROTOCOL SUMMARY: qHTS profiling for inhibitors of Plasmodium falciparum proliferation (AID 504749); further: nearly all actives have a fitted effect of over 60% in size
EXPERIMENTAL CONTEXT: P. falciparum in erythrocytes, SYBR Green DNA, 72 h; series mostly up to 28.7 µM
Inconclusive results are not listed. Calls of active or inactive are those of the source. The call rests on the fitted dose curve; in most records, active means well fitted inhibition curve with a large enough effect; inconclusive means small, poorly fitted or top-dose-only effect; inactive means flat fitted curve, though single readings scatter.

MOLECULE: CCOC(=O)C1=C(COCCN)NC(C)=C(C(=O)OC)C1c1ccccc1Cl (stereo not drawn)
outcome: inactive
--
MOLECULE: C=C(C)C1CC=C(C)CC1 (stereo not drawn)
outcome: inactive
--
MOLECULE: O=P(O)(O)OP(=O)(O)OP(=O)(O)O
outcome: inactive

###

Tested on: CP286
PROTOCOL SUMMARY: qHTS profiling for inhibitors of Plasmodium falciparum proliferation (AID 504749); further: nearly all actives have a fitted effect of over 60% in size
EXPERIMENTAL CONTEXT: P. falciparum in erythrocytes, SYBR Green DNA, 72 h; series mostly up to 28.7 µM
Records with an inconclusive call do not appear. Active and inactive are the calls of the source. The call rests on the fitted dose curve; in most records, active means well fitted inhibition curve with a large enough effect; inconclusive means small, poorly fitted or top-dose-only effect; inactive means flat fitted curve, though single readings scatter.
Your response should consist of one outcome taken from active, inactive

I would be grateful if you could indicate the recorded call for CN(C)CCOc1ccc(/C(=C(/CCCl)c2ccccc2)c2ccccc2)cc1 .
inactive

Test call for this compound, please: NCC[C@H](O)C(=O)N[C@@H]1C[C@H](N)[C@@H](O[C@H]2O[C@H](CN)[C@@H](O)[C@H](O)[C@H]2O)[C@H](O)[C@H]1O[C@H]1O[C@H](CO)[C@@H](O)[C@H](N)[C@H]1O
inactive

Each compound tested received a call. Report the one for CC(=O)c1ccc2c(c1)N(CCCN1CCN(CCO)CC1)c1ccccc1S2 .
active

Each compound tested received a call. Report the one for COC(=O)C(CN)c1c[nH]c2ccc(OC)cc12 (centres undefined) .
inactive

What classification did O=C(O)Cc1cc(I)c(Oc2ccc(O)c(I)c2)c(I)c1 end up with in this test?
inactive

Record lookup: outcome of this test for COc1ccc2c(c1)OC(C)(C)C(c1ccccc1)C2c1ccc(OCCN2CCCC2)cc1 (centres undefined) ?
active

// return assay outcome for O=C(O)/C=C/C(=O)Nc1ccc(S(=O)(=O)Nc2nccs2)cc1
inactive

What is the recorded call for this compound in the test? C=C(C)C1CC=C(C)CC1 (centres undefined)
inactive

Would you mind telling me which call this test gave CCN(CC)C(=S)S ?
inactive

Recorded test outcome, item CNC(=O)c1c(I)c(C(=O)NCC(=O)Nc2c(I)c(C(=O)O)c(I)c(C(=O)NCCO)c2I)c(I)c(N(C)C(C)=O)c1I
inactive

GET /call?item= FC(F)(F)COCC(F)(F)F returns the recorded outcome of this test.
inactive

Check the results log: what was the call for O=S(=O)(O)CCCS(=O)(=O)O ?
inactive

Test call for this compound, please: CC(=O)Oc1cccc(C(=O)O)c1OC(C)=O
inactive

Each compound tested received a call. Report the one for CCOc1cc(-c2nccc3cc(OC)c(OC)cc23)cc(OCC)c1OCC .
active

###

System: 3D7
PROTOCOL SUMMARY: qHTS profiling for inhibitors of Plasmodium falciparum proliferation (AID 504749); further: nearly all actives have a fitted effect of over 60% in size
EXPERIMENTAL CONTEXT: P. falciparum in erythrocytes, SYBR Green DNA, 72 h; series mostly up to 28.7 µM
Results filed as inconclusive are left out. The source made the active and inactive calls. Calls come from the whole dose curve; as a rule, active = well fitted inhibition curve with a large enough effect; inconclusive = small, poorly fitted or top-dose-only effect; inactive = flat fitted curve, though single readings scatter.

MOLECULE: CCN(CC)CCOc1ccccc1OC
outcome: inactive
--
MOLECULE: CC1CCC(NC(=O)N(CCCl)N=O)CC1 (stereo not drawn)
outcome: inactive
--
MOLECULE: Cc1cccc(C)c1NC(=O)NC1=CCCN1C
outcome: inactive

###

Tested on: FAB9
PROTOCOL SUMMARY: qHTS profiling for inhibitors of Plasmodium falciparum proliferation (AID 504749); further: nearly all actives have a fitted effect of over 60% in size
EXPERIMENTAL CONTEXT: P. falciparum in erythrocytes, SYBR Green DNA, 72 h; series mostly up to 28.7 µM
Records with an inconclusive call do not appear. Calls of active or inactive are those of the source. Calls come from the whole dose curve; as a rule, active = well fitted inhibition curve with a large enough effect; inconclusive = small, poorly fitted or top-dose-only effect; inactive = flat fitted curve, though single readings scatter.
Permitted responses: active, inactive

What outcome does the record of this test show for CCN(CC)CCC(=O)N1c2ccccc2Sc2ccc(C(F)(F)F)cc21 ?
inactive

I'd appreciate the recorded outcome for CCC(C)[C@@H](N)C(=O)O (some centres undefined) from this test.
inactive

Per the records of this test, what outcome belongs to CC(=O)Oc1cccc2c1C(=O)c1c(OC(C)=O)cc(C(=O)O)cc1C2=O ?
inactive

I would be grateful if you could indicate the recorded call for C=C1C(CCl)(CCl)C2(Cl)C(Cl)C(Cl)C1(Cl)C2(Cl)Cl (centres undefined) .
active

Tell me the assay call for NCC[C@H](O)C(=O)N[C@@H]1C[C@H](N)[C@@H](O[C@H]2O[C@H](CN)[C@@H](O)[C@H](O)[C@H]2O)[C@H](O)[C@H]1O[C@H]1O[C@H](CO)[C@@H](O)[C@H](N)[C@H]1O please.
inactive

Hi, sorry to bother you, what did the test record for C[C@]12CCC(=O)C[C@@H]1CC[C@@H]1[C@@H]2CC[C@]2(C)C=CC[C@@H]12 ?
inactive

// param item: CC(C)(C)CC(C)(C)c1ccc(OCCO)cc1 ; yields the recorded call
inactive

What outcome does the record of this test show for CN1C(=O)C[C@@H](C(=O)N[C@@H](Cc2cnc[nH]2)C(=O)N2CCC[C@H]2C(N)=O)NC1=O ?
inactive

Check the results log: what was the call for CCOC(=O)c1c[nH]c2cc(OCC(C)C)c(OCC(C)C)cc2c1=O ?
active

Tell me the assay call for CC(C)CCC[C@@H](C)[C@H]1CC[C@H]2[C@@H]3CC[C@@H]4C[C@H](O)CC[C@]4(C)[C@H]3CC[C@]12C please.
inactive

Outcome? Cc1cc(-c2ccc(N=Nc3ccc4c(S(=O)(=O)O)cc(S(=O)(=O)O)c(N)c4c3O)c(C)c2)ccc1N=Nc1ccc2c(S(=O)(=O)O)cc(S(=O)(=O)O)c(N)c2c1O
inactive

Which outcome was entered for the compound CO/N=C(\C(=O)N[C@@H]1C(=O)N2C(C(=O)[O-])=C(C[n+]3cccc4c3CCC4)CS[C@H]12)c1csc(N)n1 in this test?
inactive

What classification did CC(=O)Nc1ccc(OC(C)=O)cc1 end up with in this test?
inactive

Could you check what this test reported for FC(F)(F)C(F)(F)C(F)(F)C(F)(F)C(F)(F)F ?
inactive

###

System: CP325
PROTOCOL SUMMARY: qHTS profiling for inhibitors of Plasmodium falciparum proliferation (AID 504749); further: nearly all actives have a fitted effect of over 60% in size; further: potency means the concentration at half of the fitted maximal effect
EXPERIMENTAL CONTEXT: P. falciparum in erythrocytes, SYBR Green DNA, 72 h; series mostly up to 28.7 µM
Inconclusive results are not listed. The source made the active and inactive calls. Calls follow the shape of the dose curve; as a rule, active = well fitted inhibition curve with a large enough effect; inconclusive = small, poorly fitted or top-dose-only effect; inactive = flat fitted curve, though single readings scatter.
REPORTED METRIC: Potency

SMILES STRUCTURE: Cc1c(Cl)cccc1Nc1ncccc1C(=O)O
RESULT VALUE: inactive
//
SMILES STRUCTURE: CC(=O)Nc1ccc(NC(=S)NC(=O)c2ccc(C(C)(C)C)cc2)cc1
RESULT VALUE: inactive
//
SMILES STRUCTURE: CC(=O)c1ccc2c(c1)N(CCCN1CCN(CCO)CC1)c1ccccc1S2
RESULT VALUE: 16.9 µM (active)
//
SMILES STRUCTURE: C=CCOc1ccc(CC(=O)O)cc1Cl
RESULT VALUE: inactive

// next entry
Quick one: Potency for O=C(O)[C@H]1CN(C/C=C/P(=O)(O)O)CCN1 ?
inactive

###

Test system: AS120
PROTOCOL SUMMARY: qHTS profiling for inhibitors of Plasmodium falciparum proliferation (AID 504749); further: nearly all actives have a fitted effect of over 60% in size
EXPERIMENTAL CONTEXT: P. falciparum in erythrocytes, SYBR Green DNA, 72 h; series mostly up to 28.7 µM
Inconclusive results are not listed. Calls of active or inactive are those of the source. The call rests on the fitted dose curve; in most records, active means well fitted inhibition curve with a large enough effect; inconclusive means small, poorly fitted or top-dose-only effect; inactive means flat fitted curve, though single readings scatter.
Valid outcomes are listed here; reply with one: 1.0 = active, 0.0 = inactive

Which outcome was entered for the molecule CN(C)C(=O)CCSC(SCCC(=O)O)c1cccc(/C=C/c2ccc3ccc(Cl)cc3n2)c1 (stereo unspecified) in this test?
1.0

Recorded test outcome, item O=C(O)CCCC/C=C(\c1ccccc1)c1cccnc1
0.0

Please state the recorded outcome for this molecule: CN1CCC(OC(=O)C(Oc2ccc(Cl)cc2)Oc2ccc(Cl)cc2)CC1
0.0

Record lookup: outcome of this test for CCCCCc1ccc(C)cc1O ?
0.0

Could you check what this test reported for C[C@H]1O[C@@H](O[C@H]2[C@@H](O)C[C@H](O[C@H]3[C@@H](O)C[C@H](O[C@H]4CC[C@@]5(C)[C@H](CC[C@@H]6[C@@H]5C[C@@H](O)[C@]5(C)[C@@H](C7=CC(=O)OC7)CC[C@]65O)C4)O[C@@H]3C)O[C@@H]2C)C[C@H](O)[C@@H]1O ?
0.0

What was the test verdict on COC(=O)[C@@H](N)CS ?
0.0

# outcome recorded in this test, key = FC(F)OC(Cl)C(F)(F)F (stereo unspecified)
0.0

Answer briefly: the call reported for CCCCCCOC(=O)c1cccnc1 in this assay.
0.0

What outcome does the record of this test show for C=CC(C)(O)CC/C=C(\C)CCC=C(C)C (stereo unspecified) ?
0.0

What call does the record list for CN1C(=O)C[C@@H](C(=O)N[C@@H](Cc2cnc[nH]2)C(=O)N2CCC[C@H]2C(N)=O)NC1=O ?
0.0

Recorded test outcome, item CCOC(=O)c1cc(-c2ccccc2)nc2ccc(C)cc12
0.0

Short answer needed: outcome of this test for CSc1nc2cc(Oc3cccc(Cl)c3Cl)c(Cl)cc2[nH]1 ?
1.0

// param item: CCCCCCCCCCCCCCCCCC(=O)OCC(C)O (stereo unspecified) ; yields the recorded call
0.0

Outcome logged for CCN(CC)CCOc1ccccc1OC in this assay:
0.0

Assay outcome for CN(C)C=Nc1c(I)cc(I)c(CCC(=O)O)c1I : what was it?
0.0

Query: recorded result category for CCCCCCCCCCCCCC(=O)OCC(COP(=O)([O-])OCC[N+](C)(C)C)OC(=O)CCCCCCCCCCCCC (stereo unspecified) in this test
0.0
